Parameter: IC50. Scope: all listed entries.
Tested on: MIA PaCa-2
Experiment: Antiproliferative activity against human MIA PaCa-2 cells harboring KRAS G12C mutant assessed as inhibition of cell proliferation incubated for 48 hrs by MTT assay
Assay type: functional, cell-based
Details: MIA PaCa-2, 48 h
Respond numerically; units are µM and should not be typed.

Record excerpt, results attached:
| Compound | Target Of Assay | IC50 / µM |
| --- | --- | --- |
| C=CC(=O)N1CCN(c2nc(=O)n(-c3ccccc3C(C)C)c3cc(-c4ccccc4Cl)c(Cl)cc23)[C@@H](C)C1 | MIA PaCa-2 | 0.77 |
| C=CC(=O)N1CCN(c2nc(=O)n(-c3ccc(C(=O)NCc4cn(CCOCCOCCOCCOCC(=O)N[C@H](C(=O)N5C[C@H](O)C[C@H]5C(=O)NCc5ccc(-c6scnc6C)cc5)C(C)(C)C)nn4)cc3C(C)C)c3cc(-c4ccccc4Cl)c(Cl)cc23)[C@@H](C)C1 | MIA PaCa-2 | 24.3 |
| C=CC(=O)N1CCN(c2nc(=O)n(-c3ccc(C(=O)NCCOCCOCCOCCOCC(=O)N[C@H](C(=O)N4C[C@H](O)C[C@H]4C(=O)NCc4ccc(-c5scnc5C)cc4)C(C)(C)C)cc3C(C)C)c3cc(-c4ccccc4Cl)c(Cl)cc23)[C@@H](C)C1 | MIA PaCa-2 | 17.9 |

Input: What does the data say about its IC50? Entry: C=CC(=O)N1CCN(c2nc(=O)n(-c3ccc(C(=O)NCCCC(=O)Nc4cccc5c4CN(C4CCC(=O)NC4=O)C5=O)cc3C(C)C)c3cc(-c4ccccc4Cl)c(Cl)cc23)[C@@H](C)C1 (stereo partly specified)
Output: 17.1

Input: What does the data say about its IC50? Entry: C=CC(=O)N1CCN(c2nc(=O)n(-c3ccc(C(=O)NCCCCCC(=O)N[C@H](C(=O)N4C[C@H](O)C[C@H]4C(=O)NCc4ccc(-c5scnc5C)cc4)C(C)(C)C)cc3C(C)C)c3cc(-c4ccccc4Cl)c(Cl)cc23)[C@@H](C)C1
Output: 24.2
